I'd be grateful if you could share measured melting point for these entries.

Look over these answered cases.
Fc1ccc(-c2ncn(CCN3CCOCC3)c2-c2ccncc2)cc1 ... 114 to 115 °C
CCCc1c(OCCCOc2ccccc2C(=O)O)ccc(C(C)=O)c1O ... 105 to 108 °C
Cc1cn(-c2cccc(C(=O)CC(=O)Nc3cc(C#Cc4ccc(F)cc4)ccc3NC(=O)OC(C)(C)C)c2)cn1 ... 166 °C

Value sought for every listed compound: melting point.
1. NNc1ccc([N+](=O)[O-])cc1F
2. CN(C)Cc1ccc(CSCCNC(=C[N+](=O)[O-])NCCCN(C)CCN(Cc2ccc(F)cc2)c2ccccn2)o1
3. Cc1ccc(NC(=O)c2ccc(N)c([N+](=O)[O-])c2)cc1C
4. CC1(C)CC(SCc2c(C(F)(F)F)nn(-c3ccccc3)c2Cl)=NO1
5. CCc1cnc(-n2cc(CCCO)c(C(C)C)n2)nc1
6. CC(C(=O)N(C)C)n1ccc(-c2cccs2)n1 (centres undefined)
7. CCC(=O)NCC[C@@H]1CCc2ccc(O)c(CCO)c21

result:
119 to 121 °C
63 °C
192 to 195 °C
89 to 90 °C
70 to 71 °C
95 to 97 °C
144 to 146 °C

Could you report melting point for every entry in the following list?
1. C=CC(O)c1cc(OC)c2oc(-c3ccc(O)c(OC)c3)c(C)c2c1 (centres undefined)
2. COC(=O)c1ccc(OCC(N)=O)c([N+](=O)[O-])c1
3. Cc1c(C)c(N2CCN(Cc3ccccc3)CC2)c(C)c2c1OC(C)(C)C2(O)c1ccc(F)nc1 (centres undefined)
4. O=C1OC(COc2ccccc2)CN1Sc1ccc(Cl)cc1 (centres undefined)
5. CCN1C(=O)C(C)(C)C(=O)N(C)c2cc(OCCCN3C(=O)C(c4ccccc4)Cc4ccccc43)ccc21 (centres undefined)

result:
["164 to 167 °C", "185 to 187 °C", "105 to 109 °C", "98 to 101 °C", "100 to 105 °C"]

Please give melting point, item by item, for the list that follows.
1. NCCOc1cccc2[nH]ccc12
2. Nc1ccc(OCOc2ccc(N)cc2[N+](=O)[O-])c([N+](=O)[O-])c1
3. Cc1ccc(S(=O)(=O)N[C@@H](C)C(=O)N[C@@H](Cc2ccccc2)C(=O)O)cc1
4. N#Cc1ccc(N2C(=O)[C@@H]3[C@H](O)CCN3C2=O)c2c1OCCO2

result:
1. 123 to 125 °C
2. 181 °C
3. 105 to 108 °C
4. 196 to 197 °C

All figures here come from a melting point compilation (Tetko et al.; mined from patent text by program, amines drawn as free bases though some values may be those of a salt).
